- System under test: Mycobacterium tuberculosis RNA polymerase, wild type (Mycobacterium tuberculosis) (UniProt P9WGY9)
- Assay details: FP
Measured endpoint: Kd (nM)
State the answer as a number, implicitly in nM.

Ask: Tell me the measured Kd of CarD T24C labelled with BODIPY-FL , please.
Reply: 56
